# target of assay: T1, IL-11 (UniProt P20809 22-199, limits assumed)
# T1 construct: also called IL-11 protein; IL-11 antigen
# T1 sequence (looked up): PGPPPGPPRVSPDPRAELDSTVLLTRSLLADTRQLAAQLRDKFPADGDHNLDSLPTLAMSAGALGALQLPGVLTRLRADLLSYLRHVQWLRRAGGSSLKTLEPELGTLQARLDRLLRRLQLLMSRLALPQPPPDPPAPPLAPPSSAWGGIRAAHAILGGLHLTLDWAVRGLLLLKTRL
# test name: flow, IL-11 + antibody on IL-11R cells; lower = more blocking
The label rule met is reserved for FITC Mean strictly under 10000 mean fluorescence; rule not met covers values equal to or above it.

{"columns": ["binder", "label class"],
 "data": [
  ["3-15D5-6A1 (antibody, human IgG1, kappa, V domains shown) VH: EVKLLESGGGLVQPGGSLKLSCAASGFDFRRYWMSWVRQAPGKGLEWIGQINPDSSMINYTPSLKDKFIISRDNAKNTLYLQMSEVRSEDTALYYCATYGHHATDSWGQGTSVTVSS VL: DIVLTQSPASLAVSLGQRATISCRASESVDSYGNSFMHWYQQKPGQPPKLLIYRASNLESGIPARFSGSGSRTDFTLTINPVEADDVATYYCQQSNEDPFTFGSGTKLEIKR", "rule not met"],
  ["3-6A4 (hybridoma) (antibody, human IgG1, kappa, V domains shown, only the variable parts apply for certain) VH: QIQLVQSGPELKKPGETVKISCKASGYTFTTNGINWVKQAAGKGLKWMGWINTNTGEPTNAEELKGRFAFSLETSASTAYLQINNLKNEDAAIYFCAREGAFGLDYWGQGTSVTVSS VL: SIVMTQSPKFLLVSAGDRVIITCKASQSVSNDVVWYQQKPGQSPKLLIYYGSHRNTGVPTRFTGSGYGTDFTFTISTVQAEDLAVYFCQQDFFSPWTFGGGTKLEIKR", "rule met"],
  ["3-7C9-1A6 (antibody, human IgG1, kappa, V domains shown) VH: QVQLKQSGPGLVQPSQSLSITCTVSGFSLTNYGVHWVRQSPGKGLEWLGAIWRGGSTDYNAAFMSRLSITKDNSKSQVFFKMNSLQPDDTAIYYCAKNLYGPAAMDYWGQGTSVTVSS VL: DIQMNQSPSSLSASLGDTITITCHANQNIYVWLSWYQQKPGNIPKLLIYEASNLHTGVPSRFSGSGSGTGFTLTISSLQPEDIATYYCQQGQSYPYTFGGGTKLEIKR", "rule met"],
  ["3-15D5-3A6 (antibody, human IgG1, kappa, V domains shown) VH: QVTLKESGPGILQPSQTLSLTCSFSGFSLSSSGMSVGWIRQPSGKGLEWLAHIWWSDDKSYNPALKSRLTISKDTSNNQVFLKIASVVTADTATYYCAREGSLGYGLDYWGQGTTLTVSS VL: DVLMTQTPLSLPVSLGDQASISCRSSQSIVHTDGNTYLEWYLQKPGQSPKLLIYKVSNRFSGVPDRFSGSGSGTDFTLKISRVEAEDLGVYYCFQGSHVPWTFGGGTKLEIKR", "rule not met"],
  ["5-20E11-1A2 (antibody, V domains shown) VH: QVQLQQPGAELVRPGTSVKMSCKASGYTFTSYWMHWVKQRPGQGLEWIGDIYPGSDSTNYHEKFKSKATLTVDTSSSTAYMQLSSLTSEDSAVYYCALDSSGYGFAYWGQGTLVTVSA VL: NIVMTQTPKFLLVSAGDRVTITRKASQSVSNDVVWYQQKPGQSPKLLMYYASYRYTGVPDRFTGSGYGTDFTFTISNVQAEDLAVYFCQQDYSSPFTFGSGTKLEIK", "rule met"],
  ["3-5B2-2G4 (antibody, human IgG1, kappa, V domains shown) VH: QIQLVQSGPELKKPGETVKISCKASGYTFTNYGMNWVKQAPGKGLKWMGWINTNTGEPTYAEEIKGRFAFSLETSASTAYLQINNLKNEDTATYFCSREGIYGMDSWGQGTSVTVSS VL: SIVMTQTPKFLLVSAGDRVTITCKASQSVSNDVVWYRQKPGQSPKLLIYYASNRYIGVPDRFTGSGYGTDFTFTISTVQAEDLAVYFCQQDYYSPWTFGGGTKLEIKR", "rule not met"],
  ["3-2B5-3D2 (antibody, human IgG1, kappa, V domains shown) VH: QVQLKQSGPGLVLPSQSLSITCTVSGFSLTSYGVHWFRQSPGTGLEWLGVIWSGGITDYNATFIPRLSISKDNSKSQVFFKMNSLQADDTAIYYCARNFDGYYYSIDYWGQGTSVTVSS VL: DIQMTQTTSSLSASLGDRVTISCRASQDISNSLNWYQQKPDGTVKLLIYYTSRLHSGVPSRFTGSGSGTDYSLTISNLEQEDIATYFCQQGNTLPLTFGAGTKLELKR", "rule not met"]
]}

Source of measurements: patent US20250002574A1
